biological target: human sputum elastase (Homo sapiens); experiment: Inhibitory effect on elastase (human sputum), spectrophotometric assay with MeOSuc-Ala-Ala-Pro-Val-pNA; type: biochemical; conditions: S: human sputum elastase; pH 8.0, 37° C.; read-out: IC50
Sequence (P08246 30-247 limits assumed): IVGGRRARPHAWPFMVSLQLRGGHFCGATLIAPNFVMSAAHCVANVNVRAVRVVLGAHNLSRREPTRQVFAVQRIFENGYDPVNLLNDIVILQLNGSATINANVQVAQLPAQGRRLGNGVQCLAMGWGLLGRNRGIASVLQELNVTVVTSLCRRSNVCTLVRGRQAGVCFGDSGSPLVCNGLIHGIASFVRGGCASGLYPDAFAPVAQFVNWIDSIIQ
pIC50: −log10 of the molar value.
ENDPOINT LABEL: pIC50

CN(C)c1ccccc1Cn1nnc(-c2ccc(OC(=O)C(C)(C)C)cc2)n1 :: 6.42
CC(C)(C)C(=O)Oc1ccc(-c2nnn(Cc3cccc([N+](=O)[O-])c3)n2)cc1 :: 6.57
C[C@H](NC(=O)c1ccc(Cn2nnc(-c3ccc(OC(=O)C(C)(C)C)cc3)n2)cc1)C(=O)O :: 6.38
COc1ccc(COCCCCn2nnc(-c3ccc(OC(=O)C(C)(C)C)cc3)n2)cc1 :: 7.66
CCN(C)c1ccc(Cn2nnc(-c3ccc(OC(=O)C(C)(C)C)cc3)n2)cc1 :: 6.82
CC(C)(C)OC(=O)NCCn1nnc(-c2ccc(OC(=O)C(C)(C)C)cc2)n1 :: 6.89
CN(C(=O)OC(C)(C)C)c1ccc(Cn2nnnc2-c2ccc(OC(=O)C(C)(C)C)cc2)cc1 :: 6.60
CN(C)c1cc(-c2nnn(Cc3ccc(C(=O)O)cc3)n2)ccc1OC(=O)C(C)(C)C :: 6.64
CC(C)(C)C(=O)Oc1ccc(-c2nnn(C(C)(C)C)n2)cc1 :: 6.10
CC(C)(C)OC(=O)COc1ccccc1Cn1nnc(-c2ccc(OC(=O)C(C)(C)C)cc2)n1 :: 6.42

1: CC(C)(C)C(=O)Oc1ccc(-c2nnn(Cc3ccc(C(=O)N[C@@H](Cc4ccccc4)C(=O)O)cc3)n2)cc1
2: CC(C)(C)C(=O)Oc1ccc(-c2nnn(Cc3ccc([N+](=O)[O-])cc3)n2)cc1
Which of the two items, 1 and 2 , has the greater recorded pIC50? The response must carry the label of the picked entry.
1
(1: 7.24, 2: 6.55)
